Target: full-length beta-Catenin (Uniprot ID P35222) (Homo sapiens, UniProt P35222)
Construct: 10 nM full-length beta-Catenin (Uniprot ID P35222)
Sequence (P35222 whole entry): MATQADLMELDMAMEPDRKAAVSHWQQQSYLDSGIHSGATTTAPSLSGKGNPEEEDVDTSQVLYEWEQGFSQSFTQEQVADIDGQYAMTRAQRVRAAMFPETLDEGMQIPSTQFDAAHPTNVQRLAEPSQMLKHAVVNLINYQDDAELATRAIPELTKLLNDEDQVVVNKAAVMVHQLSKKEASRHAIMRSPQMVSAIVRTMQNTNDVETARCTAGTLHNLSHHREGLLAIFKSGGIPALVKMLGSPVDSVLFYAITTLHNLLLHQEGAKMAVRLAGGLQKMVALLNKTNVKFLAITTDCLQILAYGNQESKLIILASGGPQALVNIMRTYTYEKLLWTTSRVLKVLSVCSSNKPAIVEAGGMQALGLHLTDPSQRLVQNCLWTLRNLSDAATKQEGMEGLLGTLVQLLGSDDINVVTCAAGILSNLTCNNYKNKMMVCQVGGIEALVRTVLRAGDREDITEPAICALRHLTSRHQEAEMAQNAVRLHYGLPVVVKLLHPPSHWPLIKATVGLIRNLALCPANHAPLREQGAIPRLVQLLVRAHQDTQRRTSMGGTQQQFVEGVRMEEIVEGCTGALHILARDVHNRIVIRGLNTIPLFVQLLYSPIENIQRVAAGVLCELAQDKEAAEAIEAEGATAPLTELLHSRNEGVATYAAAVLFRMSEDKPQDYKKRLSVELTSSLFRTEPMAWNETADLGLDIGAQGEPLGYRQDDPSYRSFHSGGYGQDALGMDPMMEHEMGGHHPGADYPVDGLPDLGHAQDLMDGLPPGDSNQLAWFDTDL
Experiment: Fluorescence polarization IC50 (beta-catenin / 5FAM-TCF4 10-53 competition)
Assay type: binding
Details: fluorescence polarization; read-out: beta-Catenin FP IC50
# pIC50 annotations
Scale: negative log10 of molar concentration, which is what pIC50 denotes.

CC(=O)N1CCC[C@]12CC=CCCCC1(CCCC=CCCCOC(=O)N3CC[C@@](C(=O)N[C@@H](Cc4ccccc4)C(=O)N[C@@H](Cc4csc5ccccc45)C(=O)N[C@@H](CCC(N)=O)C(N)=O)(C3)NC(=O)[C@H](CC(C)C)NC(=O)[C@H](Cc3ccccc3)NC(=O)[C@H](C)NC(=O)[C@H](CCCCNC(C)C)NC(=O)[C@H](CCC(N)=O)NC(=O)[C@H](CC(N)=O)NC1=O)NC(=O)[C@H](C)NC(=O)[C@H](CC(=O)O)NC2=O (stereo partly drawn) : 5.84

Prompt: Output measured pIC50 for this item: CC(=O)N1CCC[C@]12CC=CCCCC1(CCCC=CCCCOC(=O)N3CC[C@@](C(=O)N[C@@H](Cc4ccsc4)C(=O)N[C@@H](Cc4csc5ccccc45)C(=O)N[C@@H](CCC(=O)N4CCC(N5CCN(C)CC5)CC4)C(N)=O)(C3)NC(=O)[C@H](CC(C)C)NC(=O)[C@H](Cc3ccccc3)NC(=O)[C@H](C)NC(=O)[C@H](C)NC(=O)[C@H](CN(CC(=O)O)CC(F)(F)F)NC(=O)[C@H](CC(=O)O)NC1=O)NC(=O)[C@H](CC(C)(C)C)NC(=O)[C@H](CC(=O)O)NC2=O (stereo partly drawn) [I-1802]
Response: 7.96

Prompt: Return the recorded pIC50 value; entry: CC(=O)N1CCC[C@]12CC=CCCCC1(CCCC=CCCCOC(=O)N3CC[C@@](C(=O)N[C@@H](Cc4ccsc4)C(=O)N[C@@H](Cc4csc5ccccc45)C(=O)N[C@@H](CCC(N)=O)C(N)=O)(C3)NC(=O)[C@H](CC(N)=O)NC(=O)[C@H](Cc3ccccc3)NC(=O)[C@H](C)NC(=O)[C@H](C)NC(=O)[C@H](CC(=O)O)NC(=O)[C@H](CC(=O)O)NC1=O)NC(=O)[C@H](CC(C)(C)C)NC(=O)[C@H](CO)NC2=O (stereo partly drawn)
Response: 6.29
